meta.source: paper PMC4223075

Kindly supply the reported EC50 values for the records listed here.
System: Arabidopsis leaves
test_summary: Ethylene formation in Arabidopsis leaves / leaf discs
Format: cell-based, Arabidopsis thaliana
reported_conditions: synthetic peptides; Arabidopsis leaves; at least six different peptide concentrations; means ± SD of three replicates
No end group written: not given here.

Answered examples (3):
sequence_code	value_measured
KDSPVTGLGHRHDWE [compound 5]	> 100 µM
SWYFPKDSPVTGLGHR [compound 14]	> 100 µM
SWYFPKDSPVTGLGH [peptide 4]	> 100 µM

Here is another sequence to look at.
## Task Quickly give me recorded EC50 for YSWYFPKDSPVTGLGHR [peptide 12]
## Result > 50 µM
